biological target: T1, VWF TIL’E’ (construct 1, residues 764–865 of VWF) (UniProt P04275 764-865); experiment: NMR titration; 15N-1H HSQC of 100 uM 15N-labelled VWF TIL’E’ free and with ~500 uM (five molar excess) unlabelled FVIII a3 peptide; 298 K; 10 mM HEPES 300 mM NaCl 5 mM CaCl2 5% D2O pH 7.3; saturation not reached, upper bound of Kd from chemical shift changes; conditions: both partners purified
T1 construct: von Willebrand factor, TIL’E’ domains, residues 764-865; mature VWF starts at Ser764; enterokinase site GTDDDDK immediately before residue 764; every result printed for plain 'VWF TIL’E’' is written on this molecule; Uniformly 15N-labelled or ILV-13CH3/2H-labelled in the NMR experiments; also called wild-type VWF TIL’E’; source: thioredoxin and His6 tag cut off with enterokinase; not shown: …
T1 sequence (P04275 764-865): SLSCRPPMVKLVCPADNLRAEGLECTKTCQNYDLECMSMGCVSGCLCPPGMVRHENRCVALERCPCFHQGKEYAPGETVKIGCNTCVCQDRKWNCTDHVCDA
Square brackets hold non-standard residues; d marks the D form. Ends that are not written are not given here. sY = N[C@@H](Cc1ccc(OS(=O)(=O)O)cc1)C(=O)O

{"columns": ["binder", "Kd"],
 "data": [
  ["EITRTTLQSDQEEID[sY]DDTISVEMKKEDFDI[sY]DEDENQSPR [FVIII a3 peptide a3_(sTyr1664-sTyr1680) (residues 1649–1689, Tyr1664 and Tyr1680 sulfated)]", "< 25 mM"]
]}
